experiment: Toxicity in 2.2.15 cells by neutral red dye uptake; assay type: cell-based; details: human, 2.2.15 cells (HepG2 cells transformed with hepatitis virion), Table 2; 2.2.15 cells; read-out: Cytotoxicity IC50 ± SD
Recorded metric: IC50 (µM)
One number for each entry, in µM.

> print(dat)
                                   compound  recorded.metric  units.symbol  assay.value
1  Nc1nc(=O)n([C@@H]2CS[C@H](CO)O2)cc1F [β-L-FTC, reference compound]             IC50            µM          746

Now look at this one.
Short answer for Nc1ccn([C@H]2CC[C@@H](CO)O2)c(=O)n1 [β-D-DDC, 2′,3′-dideoxycytidine, reference compound] : IC50 was 236
